Target: SARS-COV-2 RBD (SARS-COV-2, UniProt P0DTC2 319-539)
Assay: ELISA, RBD coated on plate

BINDER	EC50, ng/mL
C573 (antibody, V domains shown) VH: QVQLQESGPGLVKPSGTLSLTCAVSGGSISTVNWWSWVRQPPGKGLEWIGEIHHSGNTNHNPSLRSRVTISVDKSKNQFSLKLRSVTAADTAVYYCARDGGRPGDAFDLWGQGTMVTVSS VL: QSALTQPASVSGSPGQSITISCTGTSSDVGGYNYVSWYQQHPGKVPKVMIYDVSNRPSGISNRFSGSKSGNTASLTISGLQAEDEADYYCNSYRSNSTRVFGTGTKVTV	2.2
C570 (antibody, V domains shown) VH: QVQLQESGPGLVKPSETLSLTCTVSGASISSYYWSWIRQPPGKGLEWIGYIYYSGSTNYNPSLKSRVTISLDTSKNQFSLQLSSVTAADTAVYYCATYYFDNSGYSYGLDVWGQGTTVTVSS VL: DIQMTQSPSSLSASVGDRVTIACRASQSISSYLHWYQQQPGKAPKLLIYAVTNLQSGVPSRFSGSGSGTDFTLTISSLQPEDFATYYCQQSYSLPQTFGQGTKVEIK	0.74
C572 (antibody, V domains shown) VH: EVQLVESGGGLIKPGRSLRLSCTASGFTFGDYAMTWFRQAPGKGLEWVGFIRSKAYGGTTGYAASVKYRFTISRDDSKSIAYLQMDSLKTEDTAVYYCTRWDGWSQHDYWGQGTLVTVSS VL: DIVMTQSPLSLSVTPGEPASISCRSSQSLLHSNGNNYFDWYLQKPGQSPQLLIYLASNRASGVPDRFSGSGSGTDFTLKISRVEAEDVGVYYCMQVLQIPYTFGQGTKLEI	2.9
C101 (antibody, V domains shown) VH: QVQLVESGGGLIQPGGSLRLSCAASGFIVSSNYMSWVRQAPGKGLEWVSVIYSGGSTFYTDSVKGRFTISRDNSKNTLYLQMNSLRAEDTAVYYCVRDYGDFYFDYWGQGTLVTVSS VL: EIVLTQSPGTLSLSPGERATLSCRASQSVSSSYLAWYQQKPGQAPRLLIYGASSRATGIPDRFSGGGSETDFTLTISRLEPEDCAVYYCQQYGSSPRTFGQGTKVEIK	1.51
C566 (antibody, V domains shown) VH: QVQLQESGPGLVKSSQTLSLNCSVFGASISSGGYYWTWIRQHPGKGLEWIGYIHYRGTYYNPSLKSRVTMSVDTSKNQFSLKVRSVSAADTAIYYCARAIVVVTLNWFDLWGQGTLVTVSS VL: NFMLTQPHSVSESPGKTVTISCSGSGGSIASNYVQWYQQRPGSAPTAVIYEDNQRPSGVPDRFSGSIDSSSNSASLTISGLKTEDEADYYCQSYDTSNPVIFGGGTKLTV	5.88
